Reported IC50 against PKMYT1 (Homo sapiens, UniProt Q99640), gathered from multiple publications, appears below.

[[record]]
compound = "Cc1ncc(-c2[nH]c3ncc(-c4c(C)ccc(O)c4C)c(C#N)c3c2Cl)c(C)n1"
tgt = "PKMYT1 (Homo sapiens, UniProt Q99640)"
measured_value = "50 to 500 nM"

[[record]]
compound = "Cc1ccc(O)c(C)c1-n1c(N)c(C(=O)c2cc3ccccc3[nH]2)c2nc(C)c(C)nc21 (atropisomer, axis not shown)"
tgt = "PKMYT1 (Homo sapiens, UniProt Q99640)"
measured_value = "200 to 500 nM"

[[record]]
compound = "Cc1ccc(O)c(C)c1-c1cnc2[nH]c(-c3cnc(N4CCC(C(N)=O)C4)nc3)c(Cl)c2c1C#N (centres unmarked)"
tgt = "PKMYT1 (Homo sapiens, UniProt Q99640)"
measured_value = "< 10 nM"

[[record]]
compound = "Cc1ccc(O)c(C)c1-n1nc(-c2nc3cnccc3s2)c(C(N)=O)c1N"
tgt = "PKMYT1 (Homo sapiens, UniProt Q99640)"
measured_value = "10 to 50 nM"

[[record]]
compound = "Cc1ccc(O)c(C)c1-n1c(N)c(C(=O)c2cc3cnc(N4CCOCC4)cc3[nH]2)c2nc(C)c(C)nc21 (atropisomer, axis not shown)"
tgt = "PKMYT1 (Homo sapiens, UniProt Q99640)"
measured_value = "≤ 200 nM"


Could you now consider this next compound?
Reported IC50 ( Cc1ccc(O)c(C)c1-n1c(N)c(C(=O)c2cc3ccccc3[nH]2)c2nccnc21 (single isomer, unassigned) ) = ≤ 200 nM
